B1: glmS ribozyme (parent)
chain: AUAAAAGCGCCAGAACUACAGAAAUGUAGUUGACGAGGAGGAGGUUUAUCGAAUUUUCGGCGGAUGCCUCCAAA

variants of: B1; assay: self-cleavage kobs at 40 uM GlcN6P; higher = faster cleavage; RNA array; settings: with glucosamine-6-phosphate
Fewer inactive variants are shown than the library holds.
self-cleavage kobs at 40 uM GlcN6P by entry:

{"mutant.id": "U47G U56G C61U C67G C70U", "self-cleavage kobs at 40 uM GlcN6P": "0.000123 s⁻¹"}
{"mutant.id": "U49G G66C", "self-cleavage kobs at 40 uM GlcN6P": "< 1e-05 s⁻¹"}
{"mutant.id": "A15C G29U", "self-cleavage kobs at 40 uM GlcN6P": "6.18e-05 s⁻¹"}
{"mutant.id": "C16U G40A", "self-cleavage kobs at 40 uM GlcN6P": "0.000204 s⁻¹"}
{"mutant.id": "U49A G62C", "self-cleavage kobs at 40 uM GlcN6P": "< 1e-05 s⁻¹"}
{"mutant.id": "U31G G43A C61A C68A", "self-cleavage kobs at 40 uM GlcN6P": "< 1e-05 s⁻¹"}
{"mutant.id": "C10G A14C", "self-cleavage kobs at 40 uM GlcN6P": "< 1e-05 s⁻¹"}
{"mutant.id": "G32A A48U C70U", "self-cleavage kobs at 40 uM GlcN6P": "< 1e-05 s⁻¹"}
{"mutant.id": "G7A G40A A53G G60C C68U", "self-cleavage kobs at 40 uM GlcN6P": "< 1e-05 s⁻¹"}
{"mutant.id": "C67U C71U", "self-cleavage kobs at 40 uM GlcN6P": "6.24e-05 s⁻¹"}
{"mutant.id": "A6C C8G G51A C71U", "self-cleavage kobs at 40 uM GlcN6P": "< 1e-05 s⁻¹"}

Entry source: the supplement of paper PMC7125110
